Below, each of the compounds is paired with its reported IC50 value.
molecular target: UniProt:Q9Y5Z0; assay: In vitro enzymatic BACE2 FRET assay; assay type: biochemical; conditions: read-out: IC50 IP (μM) BACE2 Enzyme
Sequence (Q9Y5Z0 63-518): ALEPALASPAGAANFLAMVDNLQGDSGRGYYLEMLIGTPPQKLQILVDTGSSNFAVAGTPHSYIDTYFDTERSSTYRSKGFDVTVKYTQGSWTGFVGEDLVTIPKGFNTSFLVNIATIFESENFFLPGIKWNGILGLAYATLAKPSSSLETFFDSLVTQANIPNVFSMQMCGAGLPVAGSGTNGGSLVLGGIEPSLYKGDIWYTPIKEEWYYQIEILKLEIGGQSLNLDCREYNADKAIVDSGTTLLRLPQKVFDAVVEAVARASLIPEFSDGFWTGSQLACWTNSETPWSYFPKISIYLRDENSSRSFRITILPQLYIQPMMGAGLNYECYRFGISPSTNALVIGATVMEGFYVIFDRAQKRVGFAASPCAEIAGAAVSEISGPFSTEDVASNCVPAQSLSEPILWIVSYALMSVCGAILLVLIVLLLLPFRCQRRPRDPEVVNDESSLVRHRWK
quantity.kind: IC50 (µM)

chemical_smiles=C#CCOc1cnc(/C(F)=C/c2ccc(F)c([C@@]3(C)N=C(N)S[C@@]4(C(C)=O)C[C@H]43)c2)cn1 recorded_measurement=0.581
chemical_smiles=CN(C)C(=O)[C@]12C[C@H]1[C@@](C)(c1cc(/C=C(\F)c3ccc(Cl)cn3)cnc1F)N=C(N)S2 recorded_measurement=0.00574
chemical_smiles=CN(C)C(=O)[C@]12C[C@H]1[C@@](C)(c1cc(/C=C(\F)c3cnc(OCC(F)(F)F)cn3)ccc1F)N=C(N)S2 recorded_measurement=0.0823
chemical_smiles=COC[C@]12C[C@H]1[C@@](C)(c1cc(/C=C(\F)c3cnc(OCC(C)C)cn3)ccc1F)N=C(N)S2 recorded_measurement=2.19
